Provenance of the data: a melting point compilation (Tetko et al.; mined from patent text by program, amines drawn as free bases though some values may be those of a salt)

quantity.name: melting point

The reported melting point of the compound `O=C(/C=C/C(=O)c1ccc(Cl)cc1)c1ccc(Cl)cc1` was 174 to 176 °C

The reported melting point of the compound `COc1ccc(-c2nc(CNC(=O)CC(=O)O)sc2-c2ccc(OC)cc2)cc1` was 126 to 130 °C

The reported melting point of the compound `COc1cccc(-c2nc(-c3ccccc3)c3ncc(-c4cccc5ccccc45)cc3n2)c1` was 166 to 167 °C

The reported melting point of the compound `CCNC(=S)NNC(=O)OC` was 117 °C

The reported melting point of the compound Cc1c(C(C)CC(=O)O)n(Cc2ccc(Cl)cc2)c2ccc(O)cc12 (configuration not stated) was 162 °C

The reported melting point of the compound `O=C(Nc1nc2ccc(Cl)cc2s1)c1ccc2cccnc2c1O` was > 320 °C

The reported melting point of the compound COc1cccc2c1C13CCN(C(=O)C4CC4)C(C2)C1(O)CCC(=O)C3 (configuration not stated) was 223 to 225 °C

The reported melting point of the compound `CC(C)OC(=O)Nc1ccc(N)c(N)c1` was 108 to 110 °C

The reported melting point of the compound `CC(C)C/C=C(\C[C@H](N)C(=O)O)C(=O)O` was 190 to 199 °C

The reported melting point of the compound COc1ccc(C(CCN(C)C)c2ncc[nH]2)cc1 (configuration not stated) was 131 to 133 °C

The reported melting point of the compound `CSC(=O)C(=O)c1ccnc(NC=O)c1` was 165 to 167 °C

The reported melting point of the compound `Cc1cc(F)c(N)cc1-n1cc(C(=O)O)c(=O)c2cc(F)c(N)c(C)c21` was > 240 °C

The reported melting point of the compound `CO[C@@H]1CCCC(c2ccc(C(=O)N3Cc4cccn4Cc4ccccc43)cc2C)=C1C` was 127 to 128 °C

The reported melting point of the compound `CCSc1cn(C)cc(-c2ccc(Cl)c(C(F)(F)F)c2)c1=O` was 115 to 116 °C

The reported melting point of the compound CC(C)C(=O)OC(OC(=O)NC1(C(=O)O)CC1)C(C)C (configuration not stated) was 127 to 129 °C

The reported melting point of the compound COc1ccc(C2(C#Cc3ccc(C(=O)O)cc3)CCCC(=O)C2)cc1OC1CCCC1 (racemic) was 102 to 104 °C

The reported melting point of the compound CCS(=O)(=O)c1cc2c(c(C(=O)NCC3CCCN3C)c1)OCCO2 (configuration not stated) was 140 to 141 °C
